target: CYP1A1 (Mus musculus); assay: Inhibition of CYP1A1 in mouse RAW264.7 cells at 500 nM incubated for 12 hrs by EROD assay relative to control; assay type: cell-based
measuredQuantity: inhibition at 12 h, 0.5 µM

What inhibition at 12 h, 0.5 µM value was documented for this compound, C#Cc1ccccc1/C=C/C(=O)c1ccc2c(c1)n(C)c(=O)n2C ? < 10%

---

target: CYP1A1 (Homo sapiens, UniProt P04798); experiment: Inhibition of CYP1A1 in human Caco-2 cells at 500 nM incubated for 12 hrs by EROD assay relative to control; format: cell-based
Sequence (P04798 whole entry): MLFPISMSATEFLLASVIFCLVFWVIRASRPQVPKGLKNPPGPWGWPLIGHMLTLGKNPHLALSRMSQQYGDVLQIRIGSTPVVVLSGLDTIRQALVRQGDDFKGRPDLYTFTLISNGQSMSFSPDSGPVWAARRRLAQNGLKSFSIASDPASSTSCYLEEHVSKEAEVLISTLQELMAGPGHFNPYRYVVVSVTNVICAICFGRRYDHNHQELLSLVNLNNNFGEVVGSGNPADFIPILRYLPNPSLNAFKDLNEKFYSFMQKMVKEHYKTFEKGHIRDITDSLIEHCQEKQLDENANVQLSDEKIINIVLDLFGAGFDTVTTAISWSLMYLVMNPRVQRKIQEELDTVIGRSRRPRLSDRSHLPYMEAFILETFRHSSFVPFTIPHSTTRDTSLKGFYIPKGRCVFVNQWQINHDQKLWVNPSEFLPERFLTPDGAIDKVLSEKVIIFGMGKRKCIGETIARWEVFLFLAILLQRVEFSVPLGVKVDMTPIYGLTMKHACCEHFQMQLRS
measuredQuantity: inhibition at 12 h, 0.5 µM

What inhibition at 12 h, 0.5 µM value was documented for this compound, C#Cc1ccccc1/C=C/C(=O)c1ccc2c(c1)n(C)c(=O)n2C ? < 10%

---

molecular target: Cytochrome P450 1A1 (Homo sapiens, UniProt P04798); test: Inhibition of CYP1A1 in human Caco-2 cells assessed as relative activity by measuring fold change at 5.0 uM incubated for 12 hrs by EROD assay relative to control; type: cell-based; conditions: caco-2, 12 h
Sequence (P04798 whole entry): as above
Returns the class for an entry based on its fold change (FC). Class ranges: LOW = under 0.3, MID = from 0.3 up to 0.7, HIGH = 0.7 and over

Cn1c(=O)n(C)c2cc(C(=O)/C=C/c3cc(F)c(F)cc3F)ccc21	LOW
Cn1c(=O)n(C)c2cc(C(=O)/C=C/c3ccc(B(O)O)cc3F)ccc21	LOW
Cn1c(=O)n(C)c2cc(C(=O)/C=C/c3ccc(C#N)cc3)ccc21	MID
Cn1c(=O)n(C)c2cc(C(=O)/C=C/c3ccncc3)ccc21	HIGH
Cn1c(=O)n(C)c2cc(C(=O)/C=C/c3c(F)c(F)c(F)c(F)c3F)ccc21	MID
Cn1c(=O)n(C)c2cc(C(=O)/C=C/c3ccccn3)ccc21	HIGH
Cn1c(=O)n(C)c2cc(C(=O)/C=C/c3ccc(C(C)(C)C)cc3)ccc21	HIGH
Cn1c(=O)n(C)c2cc(C(=O)/C=C/c3ccc([N+](=O)[O-])cc3)ccc21	MID
Cn1c(=O)n(C)c2cc(C(=O)/C=C/c3ccc4ccccc4n3)ccc21	LOW
Cn1c(=O)n(C)c2cc(C(=O)/C=C/c3ccc([N+](=O)[O-])o3)ccc21	LOW

Into which bin does this molecule go? Cn1c(=O)n(C)c2cc(C(=O)/C=C/C#C[Si](C)(C)C)ccc21 LOW

Same read-out for Cn1c(=O)n(C)c2cc(S(=O)(=O)NCc3ccccc3)ccc21 ? HIGH

Same read-out for Cn1c(=O)n(C)c2cc(C(=O)/C=C/c3cc(F)cc(F)c3)ccc21 ? HIGH

Same read-out for CN(C)c1ccc(/C=C/C(=O)c2ccc3c(c2)n(C)c(=O)n3C)cc1 ? LOW

Same read-out for Cn1c(=O)n(C)c2cc(C(=O)/C=C/c3ccco3)ccc21 ? MID

---

molecular target: CYP1A1 (Mus musculus, UniProt P00184); test: Inhibition of CYP1A1 in mouse RAW264.7 cells assessed as relative activity by measuring fold change at 500 nM incubated for 12 hrs by EROD assay relative to control; assay type: cell-based; details: read-out: FC
measuredQuantity: fold induction at 12 h, 0.5 µM
Respond numerically, and do not add a unit to the figure.

These solved cases illustrate the format of a correct answer.
C#Cc1ccc(/C=C/C(=O)c2ccc(NC(C)=O)cc2)cc1	1.12
Cn1c(=O)n(C)c2cc(C(=O)/C=C/c3ccc4ccccc4n3)ccc21	0.61
CSc1ccc(/C=C/C(=O)c2ccc3c(c2)n(C)c(=O)n3C)cc1	0.57
Cn1c(=O)n(C)c2cc(S(=O)(=O)NCc3ccccc3)ccc21	1.02

What fold induction at 12 h, 0.5 µM value was documented for this molecule, Cn1c(=O)n(C)c2cc(C(=O)/C=C/c3ccc(O[Si](C)(C)C(C)(C)C)cc3)ccc21 ? 1.11

---

target: CYP1A1 (Homo sapiens, UniProt P04798); assay: Inhibition of CYP1A1 in human Caco-2 cells assessed as relative activity by measuring fold change at 500 nM incubated for 12 hrs by EROD assay relative to control; format: cell-based; details: read-out: FC
measuredQuantity: fold induction at 12 h, 0.5 µM
Respond numerically, and do not add a unit to the figure.

These solved cases illustrate the format of a correct answer.
Cn1c(=O)n(C)c2cc(C(=O)/C=C/c3ccc(B(O)O)cc3F)ccc21	0.45
Cn1c(=O)n(C)c2cc(C(=O)/C=C/c3ccc(C(C)(C)C)cc3)ccc21	0.98
Cn1c(=O)n(C)c2cc(C(=O)/C=C/c3cnc4ccccc4c3)ccc21	0.62
Cn1c(=O)n(C)c2cc(C(=O)/C=C/C=C/c3ccccc3)ccc21	0.82

What fold induction at 12 h, 0.5 µM value was documented for this molecule, Cn1c(=O)n(C)c2cc(C(=O)/C=C/c3cn(Cc4ccccc4)c4ccccc34)ccc21 ? 0.52

---

target: CYP1A1 (Mus musculus); assay: Inhibition of CYP1A1 in mouse RAW264.7 cells assessed as relative activity by measuring fold change at 5 uM incubated for 12 hrs by EROD assay relative to control; type: cell-based; details: read-out: FC
measuredQuantity: fold induction at 12 h, 5 µM

Cc1ccc(/C=C/C(=O)c2ccc3c(c2)n(C)c(=O)n3C)cn1	0.2

What fold induction at 12 h, 5 µM value was documented for this molecule, C#Cc1ccc(/C=C/C(=O)c2ccc(N(C)C(C)=O)cc2)cc1 ? 1.04

Same read-out for Cn1c(=O)n(C)c2cc(C(=O)/C=C/c3ccc(F)cc3Cl)ccc21 ? 0.56

Same read-out for Cn1c(=O)n(C)c2cc(C(=O)/C=C/c3ccc4ccccc4n3)ccc21 ? 0.17

Same read-out for Cn1c(=O)n(C)c2cc(C(=O)/C=C/c3cccn3C(=O)OC(C)(C)C)ccc21 ? 0.55

Same read-out for C#Cc1ccc(/C=C/C(=O)c2ccccc2)cc1 ? 0.18

Same read-out for Cn1c(=O)n(C)c2cc(C(=O)/C=C/c3ccccc3P(c3ccccc3)c3ccccc3)ccc21 ? 0.31

---

target: CYP1A1 (Mus musculus, UniProt P00184); test: Inhibition of CYP1A1 in mouse RAW264.7 cells assessed as relative activity by measuring fold change at 5 uM incubated for 12 hrs by EROD assay relative to control; type: cell-based; settings: read-out: FC
Recorded fold induction at 12 h, 5 µM values for a group of compounds are listed next.
Respond numerically, and do not add a unit to the figure.

These solved cases illustrate the format of a correct answer.
Cn1c(=O)n(C)c2cc(C(=O)/C=C/c3ccc(C#N)cc3)ccc21	0.6
Cn1c(=O)n(C)c2cc(C(=O)/C=C/c3coc4ccccc34)ccc21	0.22
Cn1c(=O)n(C)c2cc(C(=O)/C=C/c3ccccn3)ccc21	0.16
Cn1c(=O)n(C)c2cc(C(=O)/C=C/c3cccc(OC(F)(F)F)c3)ccc21	0.16
Cn1c(=O)n(C)c2cc(C(=O)/C=C/c3c(F)c(F)c(F)c(F)c3F)ccc21	0.43

What fold induction at 12 h, 5 µM value was documented for this compound, CC(C)=CCC/C(C)=C/COc1c2ccoc2cc2oc(=O)ccc12 [BERGAMOTTIN] ? 0.18

Same read-out for Cn1c(=O)n(C)c2cc(C(=O)/C=C/c3ccc(-c4ccccc4)cc3)ccc21 ? 0.81

Same read-out for CCCCOc1ccc(/C=C/C(=O)c2ccc3c(c2)n(C)c(=O)n3C)cc1 ? 0.77

Same read-out for Cn1c(=O)n(C)c2cc(C(=O)/C=C/c3ccccc3F)ccc21 ? 1.02

Same read-out for Cn1c(=O)n(C)c2cc(C(=O)/C=C/c3ccncc3)ccc21 ? 1.22

---

Target: CYP1A1 (Mus musculus, UniProt P00184)
Sequence (P00184 whole entry): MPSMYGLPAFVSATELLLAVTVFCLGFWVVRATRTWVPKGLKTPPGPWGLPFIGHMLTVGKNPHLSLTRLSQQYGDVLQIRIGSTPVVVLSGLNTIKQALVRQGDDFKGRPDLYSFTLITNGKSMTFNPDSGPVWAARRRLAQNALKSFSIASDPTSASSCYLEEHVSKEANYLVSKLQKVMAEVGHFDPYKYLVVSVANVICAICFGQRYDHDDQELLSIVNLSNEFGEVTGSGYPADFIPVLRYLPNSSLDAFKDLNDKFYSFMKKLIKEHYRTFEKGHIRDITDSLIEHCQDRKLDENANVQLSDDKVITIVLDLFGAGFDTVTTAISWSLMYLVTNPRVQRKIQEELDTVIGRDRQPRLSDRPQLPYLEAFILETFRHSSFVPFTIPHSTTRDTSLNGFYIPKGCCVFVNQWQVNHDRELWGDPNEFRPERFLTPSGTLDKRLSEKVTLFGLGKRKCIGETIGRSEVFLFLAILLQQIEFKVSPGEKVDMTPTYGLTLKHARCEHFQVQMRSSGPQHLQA
Assay: Inhibition of CYP1A1 in mouse RAW264.7 cells assessed as relative activity by measuring fold change at 500 nM incubated for 12 hrs by EROD assay relative to control
Format: cell-based
Conditions: read-out: FC
Returns: string. Value is class 1 if measured fold induction at 12 h, 0.5 µM is below 0.7, and class 0 if it is greater than or equal to it.

Here's what some known entries look like.
Cn1c(=O)n(C)c2cc(C(=O)/C=C/C#C[Si](C)(C)C)ccc21	class 1
Cn1c(=O)n(C)c2cc(C(=O)/C=C/c3c4ccccc4cc4ccccc34)ccc21	class 0
Cn1c(=O)n(C)c2cc(C(=O)/C=C/c3cnc4ccccc4c3)ccc21	class 0
C#Cc1cccc(/C=C/C(=O)c2ccc3c(c2)n(C)c(=O)n3C)c1	class 0
Cn1c(=O)n(C)c2cc(C(=O)/C=C/c3ccc([N+](=O)[O-])o3)ccc21	class 0
C#Cc1ccc(/C=C/C(=O)c2ccc(N(C)C(C)=O)cc2)cc1	class 0

Just wondering, is fold induction at 12 h, 0.5 µM of Cn1c(=O)n(C)c2cc(C(=O)/C=C/c3cc(F)c(F)cc3F)ccc21 below 0.7? class 0

Same read-out for Cn1c(=O)n(C)c2cc(C(=O)/C=C/c3ccc(F)cc3Cl)ccc21 ? class 1

Same read-out for Cn1c(=O)n(C)c2cc(C(=O)/C=C/c3cc4ccccc4o3)ccc21 ? class 0
